Reference source: patent US20260109776A1

// reported human B cell proliferation, no crosslinking, EC50 per item
Biological target: human CD40 on cells (human, UniProt P25942 21-277)
Sequence (P25942 21-277 limits assumed): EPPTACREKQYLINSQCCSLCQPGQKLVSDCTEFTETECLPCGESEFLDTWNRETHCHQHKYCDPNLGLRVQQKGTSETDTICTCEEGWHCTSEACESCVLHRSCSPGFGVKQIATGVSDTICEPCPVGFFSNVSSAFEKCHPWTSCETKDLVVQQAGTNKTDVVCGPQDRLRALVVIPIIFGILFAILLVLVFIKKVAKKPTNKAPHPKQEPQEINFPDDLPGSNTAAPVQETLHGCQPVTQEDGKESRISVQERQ
Experiment: cell-based or functional assay

See these solved cases before continuing.
[[record]]
binder = "4G7 (antibody, IgG4, V domains shown, also called 4869-1) VH: QVQLVQSGAEVKKPGASVKVSCKASGYTFAGYYMHWVRQAPGQGLEWMGWINPDSGGTNFAQQFQGRVTMTRDTSISTAYMEVSRLRSDDTAVFYCAREKITMTGIYFDYWGQGTLVTVSS VL: DIQMTQSPSSLSASVGDILTITCRASQNITTYLNWYQQKPGKAPNLLISAASRLRSGVPSRFSGSGSGTDFTLTISSLQPVDFTTFYCQQTFTTPWTFGQGTKVEIKR"
endpoint_value = "> 16.7 nM"

[[record]]
binder = "35F11 (antibody, IgG4, V domains shown, also called 4868-1) VH: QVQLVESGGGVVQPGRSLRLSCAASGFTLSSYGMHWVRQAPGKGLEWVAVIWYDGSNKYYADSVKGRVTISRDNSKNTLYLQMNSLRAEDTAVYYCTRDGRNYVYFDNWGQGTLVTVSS VL: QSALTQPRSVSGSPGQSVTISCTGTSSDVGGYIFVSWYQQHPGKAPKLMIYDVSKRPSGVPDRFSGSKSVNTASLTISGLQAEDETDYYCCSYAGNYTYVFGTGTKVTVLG"
endpoint_value = "> 16.7 nM"


Problem: # get_value(readout='human B cell proliferation, no crosslinking, EC50', item= 39C2 (antibody, IgG4, V domains shown, also called 4887-1) VH: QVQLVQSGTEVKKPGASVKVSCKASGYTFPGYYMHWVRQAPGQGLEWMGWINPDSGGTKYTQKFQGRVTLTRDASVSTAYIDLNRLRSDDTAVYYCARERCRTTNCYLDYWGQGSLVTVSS VL: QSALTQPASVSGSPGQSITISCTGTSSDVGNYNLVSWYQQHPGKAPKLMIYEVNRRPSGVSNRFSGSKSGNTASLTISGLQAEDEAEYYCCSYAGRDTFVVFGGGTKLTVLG )
Result: > 16.7 nM
